Values compiled from paper PMC6270094.

Percentage of inhibition of GABA-induced inward currents values, listed per item
test system: native GABAA receptors of guinea pig myenteric neurons; test: Whole-cell recordings of membrane currents induced by GABA (IGABA) in cultured myenteric neurons; type: cell-based; conditions: 100 μM compound, 300 μM GABA, 3 min treatment; mean ± SEM (n)

// worked examples, Percentage of inhibition of GABA-induced inward currents included
molecule.smiles	reported.result
O=S1(=O)Nc2ccc(Br)cc2Nc2ccccc21	74.2 ± 2.4 (10) %
CCOC(=O)c1ccc2c(c1)Nc1ccccc1S(=O)(=O)N2	47.1 ± 3.7 (7) %
O=S1(=O)Nc2ccc(F)cc2Nc2ccccc21	50.8 ± 2.1 (12) %
COc1ccc2c(c1)Nc1ccccc1S(=O)(=O)N2	43.7 ± 3.8 (3) %
O=C(O)c1ccc2c(c1)Nc1ccccc1S(=O)(=O)N2	16.0 ± 2.4 (6) %
O=S1(=O)Nc2ccc(Cl)cc2Nc2ccccc21	74.2 ± 3.6 (6) %

API: the following record is the query input.
The molecule `O=S1(=O)Nc2ccccc2Nc2ccccc21` , when measured on native GABAA receptors of guinea pig myenteric neurons, yielded Percentage of inhibition of GABA-induced inward currents of 28.4 ± 1.4 (5) %
